- target-of-assay: Serine/threonine-protein kinase PAK 2 (Homo sapiens) (UniProt Q13177);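 further: values are mean percent inhibition of PAK2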
- Sequence (Q13177 whole entry): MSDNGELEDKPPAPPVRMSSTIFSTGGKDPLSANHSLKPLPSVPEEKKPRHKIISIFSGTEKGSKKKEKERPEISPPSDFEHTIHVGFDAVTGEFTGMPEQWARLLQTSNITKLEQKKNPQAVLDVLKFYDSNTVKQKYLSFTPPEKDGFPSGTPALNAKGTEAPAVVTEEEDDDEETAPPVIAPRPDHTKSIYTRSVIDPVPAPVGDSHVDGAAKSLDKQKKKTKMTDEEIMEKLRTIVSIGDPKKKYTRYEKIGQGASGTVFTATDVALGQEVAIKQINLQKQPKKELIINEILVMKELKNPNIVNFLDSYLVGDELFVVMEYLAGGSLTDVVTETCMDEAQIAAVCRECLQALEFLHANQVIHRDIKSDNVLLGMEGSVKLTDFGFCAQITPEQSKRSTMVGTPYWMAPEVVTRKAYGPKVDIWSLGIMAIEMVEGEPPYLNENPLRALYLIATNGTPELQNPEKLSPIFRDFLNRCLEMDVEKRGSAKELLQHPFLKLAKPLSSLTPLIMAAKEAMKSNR
- assay-context: at 0.1 µM
assay-readout: inhibition (%)
Give bare numbers, in %.

Some solved entries appear below for comparison.
Any idea what its inhibition is? The compound is CC1=C(C(=O)Nc2ccc3[nH]ncc3c2)C(c2ccc3ccccc3c2)CC(=O)N1 (stereo not given)
-0.2

Any idea what its inhibition is? The compound is "CCN1CCC(CC(=O)Nc2n[nH]c3nc(-c4cccs4)c(Br)cc23)CC1"
-2.22

Any idea what its inhibition is? The compound is "Fc1cccc(COc2ccc(Nc3ncnc4cc(-c5ccc[nH]5)sc34)cc2Cl)c1"
-0.06

Each compound below has a reported value. Please supply its inhibition.
1. Nc1nc(-c2ccccn2)c(-c2ccc3ncccc3n2)s1
2. Cc1cc(O)cc(C)c1/C=C/c1cncc(-c2nn[nH]n2)c1
3. COc1cc2ncn(-c3cc(O[C@@H](C)c4ccccc4Cl)c(C(N)=O)s3)c2cc1OC
4. COc1cc2ncn(-c3cc(O[C@H](C)c4ccccc4Cl)c(C(N)=O)s3)c2cc1OC
5. Fc1cccc(COc2ccc(Nc3ncnc4sc(-c5cccs5)cc34)cc2Cl)c1
6. [O-][S+]1CCN(Cc2ccc(-c3ccc4ncnc(Nc5ccc(OCc6ccccc6)c(F)c5)c4c3)o2)CC1
7. COc1cc(C=NNc2ncnc3c2cnn3-c2ccccc2)ccc1O

1.82
2.28
1.89
0.59
-0.69
0.28
2.39

====

Field: inhibition. Provide a value for each of the molecules that follow.
- Test system: Platelet-derived growth factor receptor alpha (Homo sapiens), P16234 [D842V]
- Sequence (P16234 whole entry D842V): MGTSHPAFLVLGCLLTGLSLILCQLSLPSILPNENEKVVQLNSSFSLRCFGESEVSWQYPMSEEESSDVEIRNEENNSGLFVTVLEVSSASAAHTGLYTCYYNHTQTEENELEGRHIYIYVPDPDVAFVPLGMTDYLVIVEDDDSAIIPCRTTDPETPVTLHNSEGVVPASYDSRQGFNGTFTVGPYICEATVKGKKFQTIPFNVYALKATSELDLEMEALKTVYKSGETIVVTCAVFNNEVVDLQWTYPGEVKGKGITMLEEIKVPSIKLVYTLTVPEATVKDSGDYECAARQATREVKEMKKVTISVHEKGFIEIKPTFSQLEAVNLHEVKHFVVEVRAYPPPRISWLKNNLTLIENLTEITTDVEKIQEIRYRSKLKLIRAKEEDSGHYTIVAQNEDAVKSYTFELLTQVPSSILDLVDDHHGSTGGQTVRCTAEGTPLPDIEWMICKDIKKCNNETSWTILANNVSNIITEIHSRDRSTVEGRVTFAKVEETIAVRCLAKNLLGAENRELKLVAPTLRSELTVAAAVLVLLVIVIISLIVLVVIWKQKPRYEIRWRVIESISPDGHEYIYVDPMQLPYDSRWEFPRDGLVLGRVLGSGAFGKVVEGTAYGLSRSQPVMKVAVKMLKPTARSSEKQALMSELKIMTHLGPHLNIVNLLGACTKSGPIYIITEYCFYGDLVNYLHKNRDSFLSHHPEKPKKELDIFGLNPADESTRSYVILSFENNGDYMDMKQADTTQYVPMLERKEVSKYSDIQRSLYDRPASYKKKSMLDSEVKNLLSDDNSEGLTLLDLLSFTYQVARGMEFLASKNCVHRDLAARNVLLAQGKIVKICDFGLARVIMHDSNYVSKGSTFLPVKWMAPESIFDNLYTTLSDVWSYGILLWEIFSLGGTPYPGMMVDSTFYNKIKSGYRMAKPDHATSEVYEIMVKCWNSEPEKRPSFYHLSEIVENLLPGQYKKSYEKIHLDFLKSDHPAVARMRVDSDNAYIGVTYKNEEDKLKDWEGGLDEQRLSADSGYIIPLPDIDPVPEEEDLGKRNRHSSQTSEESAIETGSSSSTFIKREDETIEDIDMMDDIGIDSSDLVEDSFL
- assay-context: at 1 µM
# include the unit after the value

Any idea what its inhibition is? The molecule is "CCn1c(-c2nonc2N)nc2ccncc21"
1.96%

Any idea what its inhibition is? The molecule is "CC(=O)Nc1cccc(C#Cc2cncnc2Nc2ccc(OCc3cccc(F)c3)c(Cl)c2)n1"
2.21%

Any idea what its inhibition is? The molecule is CC1=C(C(=O)Nc2ccc3[nH]ncc3c2)C(c2ccc(F)cc2)NC(=O)N1 (stereo unspecified)
3.2%

Any idea what its inhibition is? The molecule is "CN(C)c1cc2c(Nc3ccc4nc(Cc5ccccc5)[nH]c4c3)ncnc2cn1"
5.67%

Any idea what its inhibition is? The molecule is "COc1cc2c(cc1Nc1nc(N3CCc4ccccc43)c3cc[nH]c3n1)N(C(=O)CN(C)C)CC2"
-1.2%

Any idea what its inhibition is? The molecule is CC1=C(C(=O)Nc2ccc3[nH]ncc3c2)C(c2ccc(Cl)c(Cl)c2)CC(=O)N1 (stereo unspecified)
1.68%

Each molecule below has a reported value. Please supply its inhibition.
1. NS(=O)(=O)c1cccc(-c2ccc3c(NC(=O)C4CC4)n[nH]c3c2)c1
2. O=C1NC(=O)C(N2CCc3ccccc32)=C1c1ccc(Cl)cc1

7.06%
6.57%

Each molecule below has a reported value. Please supply its inhibition.
1. O=C1NC(=O)C(c2ccccc2Cl)=C1Nc1cccc(O)c1
2. CCCN1CCC=C(c2ccc(Nc3nc(Nc4ccccc4C(N)=O)c4cc[nH]c4n3)c(C)c2)C1
3. CS(=O)(=O)Nc1ccc(N/C=C2\C(=O)Nc3ccccc32)cc1

-0.58%
24.2%
18%

====

- System: Leucine-rich repeat serine/threonine-protein kinase 2 (Homo sapiens), Q5S007 [G2019S]
- Sequence (Q5S007 whole entry G2019S): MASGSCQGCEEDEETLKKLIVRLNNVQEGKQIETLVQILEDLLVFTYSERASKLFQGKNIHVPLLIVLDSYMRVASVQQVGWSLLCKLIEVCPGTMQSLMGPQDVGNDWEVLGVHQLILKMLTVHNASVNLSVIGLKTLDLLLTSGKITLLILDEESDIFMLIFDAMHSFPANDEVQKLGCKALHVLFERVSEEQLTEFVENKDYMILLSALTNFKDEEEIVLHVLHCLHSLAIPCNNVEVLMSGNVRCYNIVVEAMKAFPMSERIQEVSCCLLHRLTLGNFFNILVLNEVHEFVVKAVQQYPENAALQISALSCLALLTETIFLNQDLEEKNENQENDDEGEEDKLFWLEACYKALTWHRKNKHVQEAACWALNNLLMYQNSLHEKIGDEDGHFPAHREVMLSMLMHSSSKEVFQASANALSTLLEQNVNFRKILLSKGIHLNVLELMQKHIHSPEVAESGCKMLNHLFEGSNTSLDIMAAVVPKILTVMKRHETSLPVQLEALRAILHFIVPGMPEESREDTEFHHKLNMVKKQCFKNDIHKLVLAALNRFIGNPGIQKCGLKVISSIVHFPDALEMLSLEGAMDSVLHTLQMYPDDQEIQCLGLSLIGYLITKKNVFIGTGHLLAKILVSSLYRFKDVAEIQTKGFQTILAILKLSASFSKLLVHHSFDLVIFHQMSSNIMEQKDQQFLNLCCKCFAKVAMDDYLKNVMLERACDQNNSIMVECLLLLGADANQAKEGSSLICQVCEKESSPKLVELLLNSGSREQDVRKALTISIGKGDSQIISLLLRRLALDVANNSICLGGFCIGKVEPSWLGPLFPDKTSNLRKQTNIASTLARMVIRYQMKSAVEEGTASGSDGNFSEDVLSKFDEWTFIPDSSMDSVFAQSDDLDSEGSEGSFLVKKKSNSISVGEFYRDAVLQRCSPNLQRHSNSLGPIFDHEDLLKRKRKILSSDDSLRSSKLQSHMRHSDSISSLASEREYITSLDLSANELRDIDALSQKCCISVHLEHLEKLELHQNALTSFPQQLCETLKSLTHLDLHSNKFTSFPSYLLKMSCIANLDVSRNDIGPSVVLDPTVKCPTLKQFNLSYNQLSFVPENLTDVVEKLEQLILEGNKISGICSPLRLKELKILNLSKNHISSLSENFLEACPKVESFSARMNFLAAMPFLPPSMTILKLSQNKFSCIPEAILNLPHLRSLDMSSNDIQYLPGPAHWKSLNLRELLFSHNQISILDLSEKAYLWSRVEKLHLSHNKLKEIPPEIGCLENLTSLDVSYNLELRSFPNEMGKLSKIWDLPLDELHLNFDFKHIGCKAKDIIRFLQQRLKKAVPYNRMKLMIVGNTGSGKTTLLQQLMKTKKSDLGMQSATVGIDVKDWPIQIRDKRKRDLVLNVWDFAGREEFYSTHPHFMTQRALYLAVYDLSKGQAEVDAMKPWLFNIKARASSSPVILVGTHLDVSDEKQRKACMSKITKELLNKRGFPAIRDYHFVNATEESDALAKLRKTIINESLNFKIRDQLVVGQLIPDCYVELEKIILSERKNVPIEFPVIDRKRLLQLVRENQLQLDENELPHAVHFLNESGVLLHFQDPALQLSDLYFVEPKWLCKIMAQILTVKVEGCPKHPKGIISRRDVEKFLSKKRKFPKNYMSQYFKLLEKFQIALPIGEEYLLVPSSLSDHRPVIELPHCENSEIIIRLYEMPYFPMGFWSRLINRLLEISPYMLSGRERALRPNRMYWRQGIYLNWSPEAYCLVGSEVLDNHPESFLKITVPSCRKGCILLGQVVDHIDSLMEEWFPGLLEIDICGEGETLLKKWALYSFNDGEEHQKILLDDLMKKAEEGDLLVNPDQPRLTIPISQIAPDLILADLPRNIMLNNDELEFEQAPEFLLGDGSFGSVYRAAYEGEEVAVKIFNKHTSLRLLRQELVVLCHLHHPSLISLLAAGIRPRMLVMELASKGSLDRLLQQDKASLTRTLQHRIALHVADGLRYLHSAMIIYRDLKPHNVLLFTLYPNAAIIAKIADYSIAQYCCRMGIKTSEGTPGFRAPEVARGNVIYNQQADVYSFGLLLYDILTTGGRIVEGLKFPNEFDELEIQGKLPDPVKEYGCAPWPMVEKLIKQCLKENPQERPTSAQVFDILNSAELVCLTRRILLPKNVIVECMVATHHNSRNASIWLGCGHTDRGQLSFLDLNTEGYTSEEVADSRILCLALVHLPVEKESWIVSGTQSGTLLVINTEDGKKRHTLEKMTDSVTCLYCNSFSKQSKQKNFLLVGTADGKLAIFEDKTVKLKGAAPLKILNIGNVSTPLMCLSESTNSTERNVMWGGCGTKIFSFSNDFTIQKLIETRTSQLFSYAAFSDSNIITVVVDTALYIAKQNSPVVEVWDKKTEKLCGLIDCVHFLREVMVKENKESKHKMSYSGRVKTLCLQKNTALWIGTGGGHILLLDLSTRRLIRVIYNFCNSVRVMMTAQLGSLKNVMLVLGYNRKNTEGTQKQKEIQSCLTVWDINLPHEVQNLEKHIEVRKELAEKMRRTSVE
- assay-context: at 0.1 µM
Field: inhibition. Provide a value for each of the compounds that follow.
Numbers only, in %.

Some solved entries appear below for comparison.
Any idea what its inhibition is? The compound is "NS(=O)(=O)c1ccc(N/N=C2\C(=O)Nc3ccc(C(=O)NCCc4c[nH]cn4)cc32)cc1"
15.3

Any idea what its inhibition is? The compound is "COc1cc2ncn(-c3cc(O[C@H](C)c4ccccc4Cl)c(C(N)=O)s3)c2cc1OC"
12.1

Any idea what its inhibition is? The compound is "NC(=O)c1cccc(Nc2nccc(Nc3cccc4[nH]ncc34)n2)c1"
4.42

Any idea what its inhibition is? The compound is "c1cnn2ncc(-c3ccnc(Nc4ccc5c(c4)OCCO5)n3)c2c1"
16.6

Any idea what its inhibition is? The compound is "COc1ccc(COc2ccc(Cc3cnc(N)nc3N)cc2OC)cc1"
3.29

Any idea what its inhibition is? The compound is "CNC(=O)c1cncc(/C=C/c2c(Cl)cccc2Cl)c1"
5.24

Any idea what its inhibition is? The compound is "Cc1nn(C)c2cc(N(C)c3ccnc(Nc4cccc(S(N)(=O)=O)c4)n3)ccc12"
4.07

Any idea what its inhibition is? The compound is "N#Cc1c(NC(=O)c2cccc3ccccc23)sc2c1CCCC2"
1.99

Any idea what its inhibition is? The compound is "COc1cc(C=NNc2ncnc3c2cnn3-c2ccccc2)ccc1O"
7.59

Now consider a different compound.
Any idea what its inhibition is? The compound is "NC(=O)c1ccc(-c2nc(-c3ccccn3)c(-c3ccc4c(c3)OCO4)[nH]2)cc1"
2.85

====

- target-of-assay: Protein kinase C gamma type (Homo sapiens);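 further: values are mean percent inhibition of PKC gamma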
- assay-context: at 0.1 µM
Field: inhibition. Provide a value for each of the compounds that follow.
One number for each entry, in %.

Some solved entries appear below for comparison.
Any idea what its inhibition is? The compound is COc1ccc2cc(-c3c(-c4ccncc4)nc(-c4ccc([S+](C)[O-])cc4)n3C)ccc2c1 (stereo not given)
1.09

Any idea what its inhibition is? The compound is "COc1ccc(-c2nn3ncccc3c2-c2ccnc(Nc3ccc(Cl)c(C(F)(F)F)c3)n2)cc1"
1.74

Any idea what its inhibition is? The compound is "[O-][S+]1CCN(Cc2ccc(-c3ccc4ncnc(Nc5ccc(OCc6ccccc6)c(F)c5)c4c3)o2)CC1"
-0.39

Each compound below has a reported value. Please supply its inhibition.
1. CCn1c(-c2nonc2N)nc2cncc(C(=O)N3CC[C@H](N)C3)c21
2. CCN1CCC(CC(=O)Nc2n[nH]c3nc(-c4cccs4)c(Br)cc23)CC1

6.77
-1.57

====

- target-of-assay: Dual specificity protein kinase TTK (Homo sapiens) (UniProt P33981)
- Sequence (P33981 whole entry): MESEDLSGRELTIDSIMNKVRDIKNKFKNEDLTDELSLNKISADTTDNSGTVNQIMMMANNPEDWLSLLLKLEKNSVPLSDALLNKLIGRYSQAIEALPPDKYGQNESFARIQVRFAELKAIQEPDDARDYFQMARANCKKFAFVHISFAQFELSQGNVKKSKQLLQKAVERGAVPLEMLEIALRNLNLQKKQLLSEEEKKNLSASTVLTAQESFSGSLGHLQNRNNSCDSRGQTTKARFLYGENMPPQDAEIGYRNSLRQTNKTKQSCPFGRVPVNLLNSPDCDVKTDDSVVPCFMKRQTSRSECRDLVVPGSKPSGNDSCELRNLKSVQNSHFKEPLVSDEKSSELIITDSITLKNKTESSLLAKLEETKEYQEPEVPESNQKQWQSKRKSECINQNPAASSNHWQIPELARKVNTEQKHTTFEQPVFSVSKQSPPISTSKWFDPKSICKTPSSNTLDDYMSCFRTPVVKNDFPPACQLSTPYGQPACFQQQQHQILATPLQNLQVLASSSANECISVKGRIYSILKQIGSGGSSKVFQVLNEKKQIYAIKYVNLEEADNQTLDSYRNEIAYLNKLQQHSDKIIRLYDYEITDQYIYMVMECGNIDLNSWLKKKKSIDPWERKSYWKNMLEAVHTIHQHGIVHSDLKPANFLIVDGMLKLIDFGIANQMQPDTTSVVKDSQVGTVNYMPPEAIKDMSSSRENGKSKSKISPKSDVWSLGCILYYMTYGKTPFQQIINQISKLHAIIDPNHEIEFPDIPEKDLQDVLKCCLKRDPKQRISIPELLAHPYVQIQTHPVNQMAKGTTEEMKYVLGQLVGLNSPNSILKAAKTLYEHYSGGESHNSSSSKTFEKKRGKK
- assay-context: at 0.1 µM
- Description: GSK_PKIS: TTK mean inhibition at 0.1 uM [Nanosyn]
Field: inhibition. Provide a value for each of the molecules that follow.
Numbers only, in %.

Any idea what its inhibition is? The molecule is "c1cnn2ncc(-c3ccnc(Nc4ccc5c(c4)OCCO5)n3)c2c1"
11.9

Any idea what its inhibition is? The molecule is "CN1CCC(C(=O)Nc2n[nH]c3nnc(-c4ccccc4)cc23)CC1"
12.6

Any idea what its inhibition is? The molecule is "CS(=O)(=O)CCNCc1ccc(-c2ccc3ncnc(Nc4ccc(OCc5cccc(F)c5)c(C(F)(F)F)c4)c3c2)o1"
12.1

Each molecule below has a reported value. Please supply its inhibition.
1. COc1ccc(-c2coc3ncnc(N)c23)cc1
2. COc1cc(C=NNc2ncnc3c2cnn3-c2ccccc2)ccc1O
3. CS(=O)(=O)CCNCc1ccc(-c2ccc3ncnc(Nc4ccc(OCc5ccccc5)c(Cl)c4)c3c2)o1

1: 10.9; 2: 3.02; 3: 4.06

Each molecule below has a reported value. Please supply its inhibition.
1. CS(=O)(=O)CCNCc1nc(-c2ccc3ncnc(Nc4ccc(F)c(Cl)c4)c3c2)cs1
2. COc1ccc(-c2ccncc2)cc1C(N)=O
3. Cc1cccc(-c2n[nH]cc2-c2ccc3ncccc3n2)n1
4. Fc1cccc(COc2ccc(Nc3ncnc4sc(-c5cccs5)cc34)cc2Cl)c1

1. 1.71
2. 5.37
3. 2.51
4. 2.43

Each molecule below has a reported value. Please supply its inhibition.
1. O=C1NC(=O)C(c2ccc(Cl)cc2)=C1Nc1ccc(Cl)c(C(=O)O)c1
2. NS(=O)(=O)c1ccc(N/N=C2\C(=O)Nc3ccc(C(=O)NCCc4c[nH]cn4)cc32)cc1
3. O=C(Nc1n[nH]c2nc(-c3ccco3)c(Br)cc12)C1CC1
4. Nc1nc(-c2ccccn2)c(-c2ccc3ncccc3n2)s1

1. -4.32
2. 37.9
3. 4.94
4. 4.02

Each molecule below has a reported value. Please supply its inhibition.
1. O=C1NC(=O)C(c2cccc(Cl)c2)=C1Nc1ccc(O)c(Cl)c1
2. Nc1nc(-c2ccc3c(c2)C(=Cc2cc(Br)c(O)c(Br)c2)C(=O)N3)cs1
3. [O-][S+]1CCN(Cc2ccc(-c3ccc4ncnc(Nc5ccc(OCc6ccccc6)c(F)c5)c4c3)o2)CC1
4. COc1cc2ncn(-c3cc(OCc4ccccc4C(F)(F)F)c(C(N)=O)s3)c2cc1OC

2.22
2.39
5.89
7.82

Each molecule below has a reported value. Please supply its inhibition.
1. COC(=O)Nc1nc2cc(Oc3ccc(NC(=O)Nc4cccc(C(=O)O)c4)cc3)ccc2[nH]1
2. CC(C)=Cc1cccc2c1/C(=N/Nc1ccc(S(N)(=O)=O)cc1)C(=O)N2
3. CC1=C(C(=O)Nc2ccc3[nH]ncc3c2)C(c2ccc3ccccc3c2)CC(=O)N1 (stereo unspecified)

1.59
11.7
5.26
